- Test system: DMS 114 small cell lung
- protocolNotes: NCI tumour cell line growth inhibition, 48 h
Measured TGI accompanies every entry in the list below.
endpointLabel: TGI

- molecule: "Cc1ccc(NC(=O)/C(=N\\Nc2ccc([N+](=O)[O-])cc2[N+](=O)[O-])C2C(=O)NC(=O)NC2=O)cc1"
  observedMeasurement: "> 100 µM"
- molecule: "N#C/C(=C\\c1cccc(O)c1)C(N)=O"
  observedMeasurement: "> 100 µM"
- molecule: "CCCCCCCCCCCCCCCC(=O)OCC1OC(n2c(O)c(N=NC(N)=S)c3ccc([N+](=O)[O-])cc32)C(OC(C)=O)C1OC(C)=O (centres undefined)"
  observedMeasurement: "> 100 µM"
- molecule: "CC(=O)c1cc([N+](=O)[O-])ccc1OCC(=O)O"
  observedMeasurement: "> 100 µM"
- molecule: "COc1cc(C2c3cc4c(cc3[C@@H](Nc3cccc(C(C)=O)c3)C3COC(=O)[C@H]23)OCO4)cc(OC)c1O (some centres undefined)"
  observedMeasurement: "4.77 µM"
- molecule: "COc1cc[n+](C)cc1"
  observedMeasurement: "> 100 µM"
- molecule: "Cc1cc2c3ccccc3n(C)c2c2c1C(=O)C=CC2=O"
  observedMeasurement: "13 µM"
- molecule: "CCC12CCCC(=O)N1C(CO)C(c1ccccc1)O2 (centres undefined)"
  observedMeasurement: "> 100 µM"
- molecule: "Cc1cc(=O)oc2cc3c(cc12)Oc1ccccc1O3"
  observedMeasurement: "> 100 µM"
- molecule: "CCCCCCCCCCCCCCCCCCCCCC(=O)Nc1ccn(C2OC(CO)C(O)C2O)c(=O)n1 (centres undefined)"
  observedMeasurement: "> 43.2 µM"
- molecule: "CC(=O)NC1=C(C)C(=O)c2c(nc3n2CCC3O)C1=N (centres undefined)"
  observedMeasurement: "13.4 µM"
- molecule: "CCC(C)C(=O)c1c(O)c(C/C=C(\\C)CCC=C(C)C)c(O)c2c(C(O)CC)cc(=O)oc12 (centres undefined)"
  observedMeasurement: "3.35 µM"
- molecule: "O=C1C2=C(c3ccccc31)C(c1ccccc1)NC(=S)N2 (centres undefined)"
  observedMeasurement: "> 100 µM"
- molecule: "CN(C)CCCN1CCc2c([nH]c3ccccc23)C1c1cccnc1 (centres undefined)"
  observedMeasurement: "> 100 µM"

* * *

- System: HOP-62 NSCLC
- protocolNotes: NCI tumour cell line growth inhibition, 48 h
endpointLabel: GI50

- molecule: "CC(=O)Nc1ccc2c(c1)oc(=O)c1cc(NC(C)=O)ccc12"
  systemTested: "HOP-62 NSCLC"
  endpointLabel: "GI50"
  observedMeasurement: "> 100 µM"
- molecule: "C[C@@H]1COCCN1c1cc(C2(S(C)(=N)=O)CC2)nc(-c2ccnc3[nH]ccc23)n1 (stereo not given in full)"
  systemTested: "HOP-62 NSCLC"
  endpointLabel: "GI50"
  observedMeasurement: "2.94 µM"
- molecule: "O=C1C(Cl)=C(Nc2cccc(O)c2)C(=O)N1c1cc(Cl)c(Cl)cc1Cl"
  systemTested: "HOP-62 NSCLC"
  endpointLabel: "GI50"
  observedMeasurement: "21.3 µM"
- molecule: "Clc1nc(Cl)c2c(ncn2C/C=C\\Cn2cnc3c(Cl)nc(Cl)nc32)n1"
  systemTested: "HOP-62 NSCLC"
  endpointLabel: "GI50"
  observedMeasurement: "2.35 µM"
- molecule: "CC1C(=O)C(C)C(c2ccccc2)N(N=O)C1c1ccccc1 (stereo not given)"
  systemTested: "HOP-62 NSCLC"
  endpointLabel: "GI50"
  observedMeasurement: "111 µM"
- molecule: "O=C1/C(=C/c2ccc(O)cc2)COc2ccc(-c3ccccc3)cc21"
  systemTested: "HOP-62 NSCLC"
  endpointLabel: "GI50"
  observedMeasurement: "19.3 µM"
- molecule: "COc1cc(Nc2nc(N[C@H]3CCCC[C@@H]3N)nc3cc[nH]c(=O)c23)cc(OC)c1"
  systemTested: "HOP-62 NSCLC"
  endpointLabel: "GI50"
  observedMeasurement: "3.21 µM"
- molecule: "CN(C)c1ccc2cc(-c3ccccc3F)c(N)nc2c1"
  systemTested: "HOP-62 NSCLC"
  endpointLabel: "GI50"
  observedMeasurement: "1.68 µM"
- molecule: "C[C@H]1[C@H](C)CC[C@]2(C(=O)O)CC[C@]3(C)C(=CC[C@@H]4[C@@]5(C)C/C(=C/c6cccnc6)[C@H](O)C(C)(C)[C@@H]5CC[C@]43C)[C@H]12"
  systemTested: "HOP-62 NSCLC"
  endpointLabel: "GI50"
  observedMeasurement: "16.4 µM"
- molecule: "Nc1cc(N)c(N)cc1N"
  systemTested: "HOP-62 NSCLC"
  endpointLabel: "GI50"
  observedMeasurement: "1.76 µM"
- molecule: "CCCCN(Cc1ccc(F)cc1)c1ccc(CO)c(Cl)c1"
  systemTested: "HOP-62 NSCLC"
  endpointLabel: "GI50"
  observedMeasurement: "11.1 µM"
- molecule: "CC(=O)OCC1OC(n2ccc(=O)[nH]c2=O)C(OC(C)=O)C1OC(C)=O (stereo not given)"
  systemTested: "HOP-62 NSCLC"
  endpointLabel: "GI50"
  observedMeasurement: "> 100 µM"
- molecule: "O=C(CCl)N1c2ccccc2Sc2c1ccc1ccccc21"
  systemTested: "HOP-62 NSCLC"
  endpointLabel: "GI50"
  observedMeasurement: "3.29 µM"
- molecule: "C=C1CC[C@@H]2[C@](C)(COC(C)=O)[C@H](OC(C)=O)CC[C@@]2(C)[C@@H]1CC(Nc1ccc(S(=O)(=O)Nc2nccc(C)n2)cc1)C1=CCOC1=O (stereo not given in full)"
  systemTested: "HOP-62 NSCLC"
  endpointLabel: "GI50"
  observedMeasurement: "10.3 µM"
- molecule: "Cn1ccnc1C(=O)/C=C/c1ccc(CC(=O)Nc2ccccc2)cc1"
  systemTested: "HOP-62 NSCLC"
  endpointLabel: "GI50"
  observedMeasurement: "3.75 µM"

* * *

- Tested on: UACC-257 melanoma
- protocolNotes: NCI tumour cell line growth inhibition, 48 h
endpointLabel: TGI

- compound: "CCC(=O)O[C@H]1CC[C@H]2[C@@H]3CCC4=C/C(=N/NC(=O)c5cccc6c(=O)c7ccccc7[nH]c56)CC[C@]4(C)[C@H]3CC[C@]12C"
  systemTested: "UACC-257 melanoma"
  observedMeasurement: "> 25 µM"
- compound: "COC(=O)CNC(=O)[C@@H](OC)[C@@H]1Cc2cc3cc(OC4CC(OC5CC(O)C(O)C(C)O5)C(O)C(C)O4)c(C)c(O)c3c(O)c2C(=O)[C@H]1OC1CC(OC2CC(OC3CC(C)(O)C(O)C(C)O3)C(O)C(C)O2)C(O)C(C)O1 (stereo partly drawn)"
  systemTested: "UACC-257 melanoma"
  observedMeasurement: "1.58 µM"
- compound: "N#C/C(=C\\c1cccc(O)c1)C(N)=O"
  systemTested: "UACC-257 melanoma"
  observedMeasurement: "> 100 µM"
- compound: "O=C(N/N=C\\c1ccc2ccccc2c1)Nc1ccc([N+](=O)[O-])cc1"
  systemTested: "UACC-257 melanoma"
  observedMeasurement: "> 75 µM"
- compound: "NC(C(=O)[O-])C(=O)[O-].NC1CCCCC1N.[Pt+4]"
  systemTested: "UACC-257 melanoma"
  observedMeasurement: "> 100 µM"
- compound: "CN(C)CCOc1ccc2c(c1)C/C(=C/c1ncc([N+](=O)[O-])n1C)C2=O"
  systemTested: "UACC-257 melanoma"
  observedMeasurement: "14.7 µM"
- compound: "N#CC(C(=O)C(=O)NCCCNC(=O)C(=O)C(C#N)c1ccccc1)c1ccccc1 (stereo not drawn)"
  systemTested: "UACC-257 melanoma"
  observedMeasurement: "> 100 µM"
- compound: "CSC1=C(c2ccc(Cl)cc2)SC(N2CCCCC2)N1c1ccc([N+](=O)[O-])cc1 (stereo not drawn)"
  systemTested: "UACC-257 melanoma"
  observedMeasurement: "85.8 µM"

* * *

- System: COLO 205 colon
- protocolNotes: NCI tumour cell line growth inhibition, 48 h
Quick rule: TGI of at least 40 µM means y, below that means n.

- compound: "CCCCn1cnc2c(SC)ncnc21"
  systemTested: "COLO 205 colon"
  classification: "y"
- compound: "CC(C)NC(=O)OCCS(=O)c1c(Cl)c(Cl)nn1C (configuration not stated)"
  systemTested: "COLO 205 colon"
  classification: "y"
- compound: "C#C[C@]1(O)CC[C@H]2[C@@H]3CCc4cc(OC(=O)c5cccc6cc7ccccc7nc56)ccc4[C@H]3CC[C@@]21C"
  systemTested: "COLO 205 colon"
  classification: "y"
- compound: "Fc1ccc2[nH]c3c(NCCCN4CCOCC4)ncnc3c2c1"
  systemTested: "COLO 205 colon"
  classification: "y"
- compound: "O=C1CC[C@@H](S(=O)(=O)c2ccccc2)[C@@H](/C=C/c2ccccc2)O1"
  systemTested: "COLO 205 colon"
  classification: "y"
- compound: "Nc1nc(Cl)cc(Nc2cc(Cl)cc(Cl)c2)n1"
  systemTested: "COLO 205 colon"
  classification: "y"
- compound: "CCCCCCCCCc1cc(=O)c2ccc(O)cc2o1"
  systemTested: "COLO 205 colon"
  classification: "y"
- compound: "CCCCOC(=O)C(O)Cc1ccoc1 (configuration not stated)"
  systemTested: "COLO 205 colon"
  classification: "y"
- compound: "C=CC[C@H](C)CCC(=O)N1[C@H]2CC3CC[C@@]2(CS1(=O)=O)C3(C)C"
  systemTested: "COLO 205 colon"
  classification: "y"
- compound: "CN(C)Cc1cc(N=Nc2ccccc2)cc(CN(C)C)c1O"
  systemTested: "COLO 205 colon"
  classification: "y"
- compound: "COC(=O)c1c(C)cccc1CC1Cc2c(C)cccc2C1=O (configuration not stated)"
  systemTested: "COLO 205 colon"
  classification: "y"
- compound: "O=C(CCl)N1c2ccccc2Sc2c1ccc1ccccc21"
  systemTested: "COLO 205 colon"
  classification: "n"
- compound: "Oc1ccc(CCCCCCc2ccc(O)cc2)cc1"
  systemTested: "COLO 205 colon"
  classification: "n"
- compound: "CC1(C)CC(=O)c2c(nc3ccc4ccccc4c3c2-c2ccc(NC(=O)CCC(=O)Nc3ccc(-c4c5c(nc6ccc7ccccc7c46)CC(C)(C)CC5=O)cc3)cc2)C1"
  systemTested: "COLO 205 colon"
  classification: "y"
- compound: "CC(C)(Br)C1(O)CCCN1C(=O)c1ccccc1 (configuration not stated)"
  systemTested: "COLO 205 colon"
  classification: "y"
- compound: "Brc1ccc2[nH]cc(-c3nc(-c4c[nH]c5ccccc45)cs3)c2c1"
  systemTested: "COLO 205 colon"
  classification: "n"
- compound: "CCOC(=O)/C=C(\\C)c1ccc(OC)cc1"
  systemTested: "COLO 205 colon"
  classification: "y"
- compound: "Cc1cccc2c1NC(=S)[C@@H]1CCCN1C2=O"
  systemTested: "COLO 205 colon"
  classification: "y"
- compound: "O=C(CSC(=S)N1CCOCC1)Nc1nc2c(s1)CCCC2"
  systemTested: "COLO 205 colon"
  classification: "y"
- compound: "Cc1nc2sc(C(=O)Nc3ccccc3)c(N)c2cc1C(=O)/C=C/c1ccccc1"
  systemTested: "COLO 205 colon"
  classification: "n"
